Some compounds, each annotated with its measured GI50.
Tested on: Ba/F3 cells HER2 mutants (YVMA)
Test Details: Ba/F3 proliferation assay HER2 YVMA
Assay type: cell-based
Particulars: Mus musculus, BaF3; 72 h, CellTiter-Glo
Quantity Measured: GI50

compound="C=CC(=O)N1CCN(c2ncc3ncnc(Nc4ccc(Oc5ccc6c(c5)ncn6C)c(Cl)c4)c3n2)CC1 [Compound I-4]" val="17 nM"
compound="C=CC(=O)N1CCN(c2ncc3ncnc(Nc4cc(F)c(Oc5ccc6c(c5)ncn6C)c(F)c4)c3n2)CC1 [Compound I-11]" val="40 nM"
compound="C#Cc1cc(Nc2ncnc3cnc(N4CCN(C(=O)C=C)CC4)nc23)ccc1Oc1ccc2c(c1)ncn2C [Compound I-2]" val="9 nM"
compound="C=CC(=O)N1CCN(c2ncc3ncnc(Nc4ccc(Oc5ccc6c(c5)ncn6C)c(F)c4)c3n2)CC1 [Compound I-6]" val="27 nM"
compound="C=CC(=O)N1CCN(c2ncc3ncnc(Nc4cc(F)c(Oc5ccc6c(c5)ncn6C)c(Cl)c4)c3n2)CC1 [Compound I-8]" val="31 nM"
compound="C=CC(=O)N1CCN(c2ncc3ncnc(Nc4cc(Br)c(Oc5ccc6c(c5)ncn6C)cc4Cl)c3n2)CC1 [Compound I-10]" val="64 nM"
compound="C=CC(=O)N1CCN(c2ncc3ncnc(Nc4cc(Br)c(Oc5ccc6c(c5)ncn6C)c(Br)c4)c3n2)CC1 [Compound I-9]" val="23 nM"
compound="C=CC(=O)N1CCN(c2ncc3ncnc(Nc4ccc(Oc5ccc6c(c5)ncn6C)c(C)c4)c3n2)CC1 [Compound I-1]" val="18 nM"
compound="C=CC(=O)N1CCN(c2ncc3ncnc(Nc4ccc(Oc5ccc6c(c5)ncn6C)cc4F)c3n2)CC1 [Compound I-12]" val="48 nM"
compound="C=CC(=O)N1CCN(c2ncc3ncnc(Nc4ccc(Oc5ccc6c(c5)ncn6C)c(OC)c4)c3n2)CC1 [Compound I-3]" val="12 nM"
compound="C=CC(=O)N1CCN(c2ncc3ncnc(Nc4cc(Cl)c(Oc5ccc6c(c5)ncn6C)c(Cl)c4)c3n2)CC1 [Compound I-7]" val="37 nM"
compound="C=CC(=O)N1CCN(c2ncc3ncnc(Nc4ccc(Oc5ccc6c(c5)ncn6C)c(Br)c4)c3n2)CC1 [Compound I-5]" val="20 nM"

###

Tested on: NCI-H2170 (HER2 wild type) cells
Test Details: Tumor cell proliferation assay NCI-H2170 (HER2 wild type)
Assay type: cell-based
Particulars: Homo sapiens, 72 h, CellTiter-Glo, read-out: GI50 NCI H-2170 HER2 wt amp.
Protocol: For proliferation assays, NCI-H2170 (HER2 wild type), NCI-H2170 HER2 YVMA and EGFR WT dependent A431 cells were used. […] CellTiter-Glo® Luminescent Cell Viability Assay (Promega) was performed and chemoluminescence was measured by using the multilabel Plate Reader VICTOR X4. The raw data were imported into and analyzed with the Boehringer Ingelheim proprietary software MegaLab (curve fitting based on the program PRISM, GraphPad Inc.).
API: label(entry) gives Met if the entry's GI50 is strictly smaller than 0.03 µM; on equality or larger values it gives Not met.

structure_string=C=CC(=O)N1CCN(c2ncc3ncnc(Nc4cc(Br)c(Oc5ccc6c(c5)ncn6C)c(Br)c4)c3n2)CC1 target_desc="NCI-H2170 (HER2 wild type) cells" label_class="Not met"
structure_string=C=CC(=O)N1CCN(c2ncc3ncnc(Nc4ccc(Oc5ccc6c(c5)ncn6C)c(F)c4)c3n2)CC1 target_desc="NCI-H2170 (HER2 wild type) cells" label_class=Met
structure_string=C=CC(=O)N1CCN(c2ncc3ncnc(Nc4ccc(Oc5ccc6c(c5)ncn6C)c(C)c4)c3n2)CC1 target_desc="NCI-H2170 (HER2 wild type) cells" label_class=Met
structure_string=C=CC(=O)N1CCN(c2ncc3ncnc(Nc4cc(F)c(Oc5ccc6c(c5)ncn6C)c(Cl)c4)c3n2)CC1 target_desc="NCI-H2170 (HER2 wild type) cells" label_class=Met
structure_string=C=CC(=O)N1CCN(c2ncc3ncnc(Nc4ccc(Oc5ccc6c(c5)ncn6C)cc4F)c3n2)CC1 target_desc="NCI-H2170 (HER2 wild type) cells" label_class="Not met"
structure_string=C=CC(=O)N1CCN(c2ncc3ncnc(Nc4cc(Cl)c(Oc5ccc6c(c5)ncn6C)c(Cl)c4)c3n2)CC1 target_desc="NCI-H2170 (HER2 wild type) cells" label_class=Met
structure_string=C=CC(=O)N1CCN(c2ncc3ncnc(Nc4cc(F)c(Oc5ccc6c(c5)ncn6C)c(F)c4)c3n2)CC1 target_desc="NCI-H2170 (HER2 wild type) cells" label_class="Not met"
structure_string=C=CC(=O)N1CCN(c2ncc3ncnc(Nc4cc(Br)c(Oc5ccc6c(c5)ncn6C)cc4Cl)c3n2)CC1 target_desc="NCI-H2170 (HER2 wild type) cells" label_class="Not met"

###

System: EGFR WT dependent A431 cells
Test Details: Tumor cell proliferation assay A431 (EGFR WT dependent)
Type: cell-based
Particulars: Homo sapiens, A-431; prior art compounds; 72 h, CellTiter-Glo; read-out: GI50 A431 EGFR wt amp.
The entries below come with measured GI50 values attached.
Quantity Measured: GI50 (nM)

molecule="C=CC(=O)Nc1cccc(-n2c(=O)c(Oc3ccc(F)cc3F)cc3cnc(Nc4cnn(C)c4)nc32)c1 [WO 2019/046775 Comp.2, reference compound]" quantity_measured=GI50 readout_relation== val=16
molecule="C=CC(=O)N1CCC(Oc2cc3c(Nc4ccc(Cl)c(Cl)c4F)ncnc3cc2OC)CC1 [poziotinib, reference compound]" quantity_measured=GI50 readout_relation== val=1
molecule="C=CC(=O)Nc1ccc2ncnc(Nc3ccc(Oc4ccc5c(c4)ncn5C)c(C)c3)c2c1 [WO 2007/059257 Ex.185, reference compound]" quantity_measured=GI50 readout_relation=> val=5000
molecule="CCOc1cc2ncc(C#N)c(Nc3ccc(OCc4ccccn4)c(Cl)c3)c2cc1NC(=O)/C=C/CN(C)C [neratinib, reference compound]" quantity_measured=GI50 readout_relation== val=55

###

Test system: NCI-H2170 HER2 YVMA cells
Test Details: Tumor cell proliferation assay NCI-H2170 HER2 YVMA
Type: cell-based
Particulars: Homo sapiens, 72 h, CellTiter-Glo, read-out: GI50 NCI H-2170 HER2 YVMA
Quantity Measured: GI50 (nM)

structure_string=C=CC(=O)N1CCN(c2ncc3ncnc(Nc4ccc(Oc5ccc6c(c5)ncn6C)c(Br)c4)c3n2)CC1 target_desc="NCI-H2170 HER2 YVMA cells" u=nM val=76
structure_string=C=CC(=O)N1CCN(c2ncc3ncnc(Nc4ccc(Oc5ccc6c(c5)ncn6C)c(OC)c4)c3n2)CC1 target_desc="NCI-H2170 HER2 YVMA cells" u=nM val=74
structure_string=C=CC(=O)N1CCN(c2ncc3ncnc(Nc4ccc(Oc5ccc6c(c5)ncn6C)c(F)c4)c3n2)CC1 target_desc="NCI-H2170 HER2 YVMA cells" u=nM val=146
structure_string=C=CC(=O)N1CCN(c2ncc3ncnc(Nc4cc(Cl)c(Oc5ccc6c(c5)ncn6C)c(Cl)c4)c3n2)CC1 target_desc="NCI-H2170 HER2 YVMA cells" u=nM val=118
structure_string=C=CC(=O)N1CCN(c2ncc3ncnc(Nc4ccc(Oc5ccc6c(c5)ncn6C)cc4F)c3n2)CC1 target_desc="NCI-H2170 HER2 YVMA cells" u=nM val=167
structure_string=C=CC(=O)N1CCN(c2ncc3ncnc(Nc4cc(Br)c(Oc5ccc6c(c5)ncn6C)c(Br)c4)c3n2)CC1 target_desc="NCI-H2170 HER2 YVMA cells" u=nM val=203
structure_string=C#Cc1cc(Nc2ncnc3cnc(N4CCN(C(=O)C=C)CC4)nc23)ccc1Oc1ccc2c(c1)ncn2C target_desc="NCI-H2170 HER2 YVMA cells" u=nM val=50
structure_string=C=CC(=O)N1CCN(c2ncc3ncnc(Nc4cc(Br)c(Oc5ccc6c(c5)ncn6C)cc4Cl)c3n2)CC1 target_desc="NCI-H2170 HER2 YVMA cells" u=nM val=216
structure_string=C=CC(=O)N1CCN(c2ncc3ncnc(Nc4cc(F)c(Oc5ccc6c(c5)ncn6C)c(Cl)c4)c3n2)CC1 target_desc="NCI-H2170 HER2 YVMA cells" u=nM val=172
structure_string=C=CC(=O)N1CCN(c2ncc3ncnc(Nc4cc(F)c(Oc5ccc6c(c5)ncn6C)c(F)c4)c3n2)CC1 target_desc="NCI-H2170 HER2 YVMA cells" u=nM val=339
structure_string=C=CC(=O)N1CCN(c2ncc3ncnc(Nc4ccc(Oc5ccc6c(c5)ncn6C)c(Cl)c4)c3n2)CC1 target_desc="NCI-H2170 HER2 YVMA cells" u=nM val=81
structure_string=C=CC(=O)N1CCN(c2ncc3ncnc(Nc4ccc(Oc5ccc6c(c5)ncn6C)c(C)c4)c3n2)CC1 target_desc="NCI-H2170 HER2 YVMA cells" u=nM val=82
